Origin of values: the OligoGym collection

biological target: MEI1; assay: pooled miR-30 sensor sort-seq; sequence = guide strand; details: shRNA; note: reference of the scale not given here
// sensor-assay potency score (higher = more potent) lookup, one value per entry

macromolecule_sequence=TTGCGCACTAACGACACGCCGG experimental_result=-1.01
macromolecule_sequence=TTGTGAGCTGTGTCCACTGGGC experimental_result=-0.159
macromolecule_sequence=TAGACTAGCTGCAGGTCTGGGA experimental_result=-0.257
macromolecule_sequence=TCTTGCTCTGACACATTCCTGA experimental_result=0.143
macromolecule_sequence=ATGGTGAGTATAGACTAGCTGC experimental_result=-0.611

Exercise: What sensor-assay potency score (higher = more potent) appears in the records for this sequence with MEI1? TTTTCTGATTGCACTGACCATA
Key: -0.486
